In this section we review reported pre-steady-state target cleavage rate values for a set of sequences.
# Tested on: EfPiwi piRISC loaded with L1MC piRNA (26 nt)
# method: pre-steady-state target cleavage rate (min^-1); auxiliary factor: 500 nM Ephydatia muelleri Gtsf1; guide: L1MC piRNA 5'p-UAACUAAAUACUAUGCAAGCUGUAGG; MIWI and MILI are mouse PIWI proteins and EfPiwi is from a freshwater sponge; tags in brackets are library labels; higher = faster piRNA-guided slicing of the target

{"columns": ["query_sequence", "bound_operator", "pre-steady-state target cleavage rate"],
 "data": [
  ["UCCUGGAUCAGCUUGCUUAGUAUUUAGUUA", "=", 0.0228],
  ["UCCUACUACAGCUUGCAUAGUAUUUAGUUA", "=", 0.0579],
  ["UCCUGCUACAGCUUGCAUAGUAAAAAGUAA", "=", 0.00322],
  ["UCCUGGAUGUGCUUGCAUAAUAUUUAGUUA", "=", 0.00327],
  ["UCCUGCUACUGCUUCCAUAGUAUUUAGUUA", "=", 0.00205],
  ["UCCUGGAUCAGCUUGCAUAGUAUUUUGAAA", "=", 0.00318],
  ["UCCUCCUACACCUUGCAUUGUAUUUAGUUA", "=", 0.0139],
  ["UCCUCCUACACCUUCCAUAGUAUUUAGUUA", "=", 0.00329],
  ["UCCUCCUACAGCUUGCAUAGUAUAAAGUUA", "=", 0.00527],
  ["UCCUGCUUCAGCAUGCAUAGUAUUUAGUUA", "=", 0.0186],
  ["UCCUCCUACAGCUUGCAUAGUUAAUAGUUA", "=", 0.00703],
  ["UCCUGCUACAGCUUGCAUAGUAUUUAGUA", "=", 0.00529],
  ["UCCUCCUACAGCUUGCAUAGUAUUAUCUAA", "=", 0.00413],
  ["UCCUGCUACAGCUUGCAUAGUAAUUUGUUA", "=", 0.00579],
  ["UCCUGGAUGUGGUUGCAUAGUAUUUAGUUA", "=", 0.00426],
  ["UCCUGGAUCAGCUUGCAUAGUAUUUAGGUUA", "=", 0.00516],
  ["UCCUGGAUCAGCUUGCAUAGUAUUAUAGUUA", "=", 0.0796],
  ["UCCUGCUACUGCUUGCAAAGUAUUUAGUUA", "=", 0.00588],
  ["UCCUGGAAGAGCUUGCAUAGUAUUUAGAUA", "=", 0.00519],
  ["UCCUGCUACAGGUUGCAUAGUAUUUUGUUA", "=", 0.0057],
  ["UCCUCCAACACCUUGCAUAGUAUUUAGUUA", "=", 0.00954],
  ["UCCUGCUACAGUCUUGCAUAGUAUUUAGUUA", "=", 0.00684],
  ["UCCUGGAUGUGCUUGCAUAGUAUAAAGUUA", "=", 0.00378],
  ["UCCUGGUACGAGCUUGCAUAGUAUUUAGUUA", "=", 0.00873],
  ["UCCUGGAACAGCGUGCAUAGUAUUUAGUUA", "=", 0.0168],
  ["UCCUCCUACAGCUUGCAAAGUAUAUAGUUA", "=", 0.008],
  ["UCCUGGAUGACCUUGCAAAGUAUUUAGUUA", "=", 0.00391],
  ["UCCUGGUACAGCUUGCAUAGUAUUUAGUUC [g2:g24:cont:t1C]", "=", 0.0096],
  ["UCCUGGAUGUCGUUUGCAUAGUAUUUAGUUA", "=", 0.0445],
  ["UCCUGCUACAGCUUGCAUACUAUUUAGAUA", "=", 0.00382],
  ["UCCUCCUACAGCUUGGAUAGUAUUUAGAAA", "=", 0.00325],
  ["UCCUCCUACAGCUUGCAUAGUAUUUAGAUA", "=", 0.00505],
  ["UCCUGGUACAGCUUGCAUAGUAUUUAUGUUA", "=", 0.00329],
  ["UCCUGGAUGUCCUUGCAUAGUAUUUUAGUUA", "=", 0.00287],
  ["UCCUGGAUCGCUUGCAUAGUAUUUAGUUA", "=", 0.065],
  ["UCCUCCAACAGCUUGCAUUGUAUUUAGUUA", "=", 0.0205],
  ["UCCUGCUACAGCAUGCAUACUAUUUAGUUA", "=", 0.00525],
  ["UCCUGGUAGAGGUUGCAUAGUAUUUAGUUA", "=", 0.00483],
  ["UCCUGCUACAGCUUGCAUAGUACUUUAGUUA", "=", 0.00465],
  ["UCCUGCUUCAGCUUGCAUAGUAUUUUCAAA", "=", 0.00362],
  ["UCCUGGAUGAGCUUGCAUAGUAUUUUAGUUA", "=", 0.00631],
  ["UCCUGGAUGUCGAACGUAUCUAUUAUCUUA", "<", 0.0001],
  ["UCCUCCUACUGCUUGCAUAGUUUUUAGUUA", "=", 0.0079],
  ["UCCUGGAACAGCUUGCAUAGUAAAUAGUUA", "=", 0.00589],
  ["UCCUGGAUGUGCUAUGCAUAGUAUUUAGUUA", "=", 0.0103],
  ["UCCUGGAUGAGCUUGCAUAGUAUUUUGUUA", "=", 0.00491],
  ["UCCUGGAACAGCAAGCAUAGUAUUUAGUUA", "=", 0.00853],
  ["UCCUGGAUGUGCUUGCAUAGUAUUUAGAUUA", "=", 0.00327],
  ["UCCUGGUACAGCUAGCAUAGUAAUUAGUUA", "=", 0.00407],
  ["UCCUCGAUCAGCUUGCAUAGUAUUUUCAAA", "=", 0.00433],
  ["UCCUGCAACAGCUUGCAUAGUAUUUACAAA", "=", 0.00305]
]}
